FYI, the data here is from ChEMBL document CHEMBL1132907.

assayed-system: UniProt P30551
Sequence (P30551 whole entry): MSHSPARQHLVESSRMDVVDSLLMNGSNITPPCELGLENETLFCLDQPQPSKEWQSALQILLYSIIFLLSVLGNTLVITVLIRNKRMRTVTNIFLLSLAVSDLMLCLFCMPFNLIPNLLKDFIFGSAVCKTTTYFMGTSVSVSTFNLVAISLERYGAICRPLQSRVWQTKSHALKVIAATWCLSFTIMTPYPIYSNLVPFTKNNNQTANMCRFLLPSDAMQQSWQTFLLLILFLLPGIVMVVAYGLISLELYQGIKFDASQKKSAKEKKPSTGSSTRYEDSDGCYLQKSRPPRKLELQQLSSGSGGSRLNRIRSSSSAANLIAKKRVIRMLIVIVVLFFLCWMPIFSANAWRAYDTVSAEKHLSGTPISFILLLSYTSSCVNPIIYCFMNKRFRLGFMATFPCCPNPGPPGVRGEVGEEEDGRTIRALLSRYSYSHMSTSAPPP
parameter-measured: pIC50
One number for each entry, as −log10 of the molar value.

Field: pIC50 (UniProt P30551). Entry: O=C(CC(Cc1c[nH]c2ccccc12)(NC(=O)OC1C2CC3CC(C2)CC1C3)C(=O)NCCc1ccccc1)NCCCCNC(=O)Nc1ccccc1Cl (stereo unspecified)
6.82
